A collection of molecules and their measured speed of sound
Conditions: 293.15 K; 101.33 kPa; Liquid; Sing-around technique in a fixed-path interferometer
reported.property: speed of sound (m/s)

molecule | observed
CCCO | 1223.9
CCCCn1cc[n+](C)c1.O=S(=O)([O-])C(F)(F)F [1-butyl-3-methylimidazolium trifluoromethanesulfonate] | 1402.9
CCC(C)O (stereo unspecified) | 1230
CC(C)O | 1156.7
CCCCCO | 1292.7
CCCCO | 1256.2

---

Settings: 323.15 K; 101.33 kPa; Liquid; Sing-around technique in a fixed-path interferometer

compound | speed of sound / m/s
CCCCn1cc[n+](C)c1.O=S(=O)([O-])C(F)(F)F [1-butyl-3-methylimidazolium trifluoromethanesulfonate] | 1336.5
CCCCO | 1155.7
CCCCCO | 1192.7
CCC(C)O (stereo unspecified) | 1120.3
CCCO | 1122
CC(C)O | 1050.8
